List of IC50 values.
- System: MDA-MB-468 spheroids with HUVEC/MSC, viability
- TEST_DETAILS: Anticancer human tumor MDA-MB-468 cell line growth inhibition [PI3K];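 further: spheroids exposed to agents for seven days before readout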
- RECORDED_CONDITIONS: curve of first compound; second compound 3.16 µM
- From the text: Combinatorial screen of targeted agents with the PI3K inhibitors inavolisib, alpelisib, duvelisib, and copanlisib in multi-cell type tumor spheroids A high-throughput screen of multi-cell type tumor spheroids was designed to identify active combinations of targeted small molecules and PI3K pathway inhibitors. […] Compounds. […] If the clinical Cmax for an agent had not been determined, the highest concentration tested was 10 microM. […]
Write the answer as a number in nM, unit excluded.

// worked examples, IC50 included
Fill: IC50 (MDA-MB-468 spheroids with HUVEC/MSC, viability) for this compound C#Cc1c(F)ccc2cc(O)cc(-c3ncc4c(N5CC6CCC(C5)N6)nc(OCC56CCCN5CC(F)C6)nc4c3F)c12 (stereo not given) + CC(Nc1ncnc2nc[nH]c12)c1cc2cccc(Cl)c2c(=O)n1-c1ccccc1
4950

For MDA-MB-468 spheroids with HUVEC/MSC, viability, give IC50 of the listed compound: CC(C)NCC(C(=O)N1CCN(c2ncnc3c2C(C)CC3O)CC1)c1ccc(Cl)cc1 (stereo not given) + Cc1nc(NC(=O)N2CCCC2C(N)=O)sc1-c1ccnc(C(C)(C)C(F)(F)F)c1
211

***
Specify the recorded IC50 for CNC(=O)c1ccc(N2C(=S)N(c3ccc(C#N)c(C(F)(F)F)c3)C(=O)C2(C)C)cc1F + Cc1nc(NC(=O)N2CCCC2C(N)=O)sc1-c1ccnc(C(C)(C)C(F)(F)F)c1 , system: MDA-MB-468 spheroids with HUVEC/MSC, viability.
4900

Look up MDA-MB-468 spheroids with HUVEC/MSC, viability data: IC50 of Cn1ncnc1[C@H]1c2n[nH]c(=O)c3cc(F)cc(c23)N[C@@H]1c1ccc(F)cc1 + Cc1nc(NC(=O)N2CCCC2C(N)=O)sc1-c1ccnc(C(C)(C)C(F)(F)F)c1 , then report it.
4.2
